Target: Insulin-like growth factor 1 receptor (Homo sapiens) (UniProt P08069);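 also: values are mean percent inhibition of IGF1R kinase activity, from the GSK published kinase inhibitor set (PKIS) screening panel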
Sequence (P08069 31-736 limits assumed): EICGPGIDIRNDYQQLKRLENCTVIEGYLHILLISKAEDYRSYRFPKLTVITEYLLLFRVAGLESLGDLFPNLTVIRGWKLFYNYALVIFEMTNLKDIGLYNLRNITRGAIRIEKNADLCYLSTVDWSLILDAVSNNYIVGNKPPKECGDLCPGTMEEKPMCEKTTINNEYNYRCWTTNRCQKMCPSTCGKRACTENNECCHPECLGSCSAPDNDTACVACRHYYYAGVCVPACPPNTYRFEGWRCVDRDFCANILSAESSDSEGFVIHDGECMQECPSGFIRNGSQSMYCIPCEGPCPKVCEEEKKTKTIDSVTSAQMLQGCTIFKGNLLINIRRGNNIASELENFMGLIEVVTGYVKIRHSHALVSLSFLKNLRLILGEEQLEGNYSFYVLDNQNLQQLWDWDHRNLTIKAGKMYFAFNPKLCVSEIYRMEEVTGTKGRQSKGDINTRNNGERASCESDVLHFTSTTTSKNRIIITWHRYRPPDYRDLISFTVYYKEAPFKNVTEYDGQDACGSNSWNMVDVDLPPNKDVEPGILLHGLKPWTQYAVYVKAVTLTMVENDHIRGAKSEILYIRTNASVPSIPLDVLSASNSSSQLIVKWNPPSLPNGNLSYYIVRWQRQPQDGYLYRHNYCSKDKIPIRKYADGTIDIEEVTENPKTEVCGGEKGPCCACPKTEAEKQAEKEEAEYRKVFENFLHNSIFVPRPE
Sequence (P08069 741-1367 limits assumed): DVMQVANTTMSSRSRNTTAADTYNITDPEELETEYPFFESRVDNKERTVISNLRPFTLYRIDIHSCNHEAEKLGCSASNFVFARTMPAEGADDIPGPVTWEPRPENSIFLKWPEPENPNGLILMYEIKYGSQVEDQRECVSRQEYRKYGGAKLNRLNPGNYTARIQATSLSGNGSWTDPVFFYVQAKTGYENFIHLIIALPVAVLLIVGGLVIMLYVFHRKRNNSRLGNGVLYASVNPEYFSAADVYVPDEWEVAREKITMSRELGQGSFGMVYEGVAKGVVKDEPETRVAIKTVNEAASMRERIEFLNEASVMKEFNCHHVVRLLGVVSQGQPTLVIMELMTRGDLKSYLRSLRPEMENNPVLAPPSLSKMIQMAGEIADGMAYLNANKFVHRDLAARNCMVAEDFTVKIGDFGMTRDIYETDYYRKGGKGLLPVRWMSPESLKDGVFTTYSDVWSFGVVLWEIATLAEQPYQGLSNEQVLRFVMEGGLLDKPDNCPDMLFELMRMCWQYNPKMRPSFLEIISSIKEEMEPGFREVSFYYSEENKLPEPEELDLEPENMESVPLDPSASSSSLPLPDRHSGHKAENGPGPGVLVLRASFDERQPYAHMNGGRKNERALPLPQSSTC
Conditions: at 0.1 µM
Listing of entries alongside the reported inhibition.
Readout: inhibition (%)

>>> df
                                   compound  display_unit  value
0  O=C1NC(=O)C(c2cccc(Cl)c2)=C1Nc1ccc(Cl)c(C(=O)O)c1             %   2.14
1  COc1cc(Nc2ncc3c(C)nc(-c4cccc(C(F)(F)F)c4)n3n2)cc(OC)c1OC             %   2.62
2  Nc1nccc(-c2c(-c3ccc(F)cc3)ncn2C2CCC(O)CC2)n1 (stereo not given)             %  -1.46
3  FC(F)(F)c1cccc(Nc2nccc(-c3cnn4nc(-c5ccccc5)ccc34)n2)c1             %  -1.86
4  COc1cccc(/C=N/Nc2ncnc3c2cnn3-c2cccc(OC)c2)c1             %   2.01
5  COc1ccc(-c2ccc3c(NC(=O)C4CC4)n[nH]c3n2)cc1             %   1.17
6  COc1cc2ncn(-c3cc(OCCc4ccccc4)c(C(N)=O)s3)c2cc1OC             %   1.99
7  C/C(Nc1ccc(S(N)(=O)=O)cc1)=C1/C(=O)Nc2ccccc21             %   0.12
8  O=C(Nc1n[nH]c2nc(-c3ccc(O)cc3)c(Br)cc12)C1CC1             %   5.22
9     NCc1ccc(-n2c(-c3nonc3N)nc3cnccc32)cc1             %   5.71

---

Biological target: MAP kinase-activated protein kinase 2 (Homo sapiens);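 also: figures are mean inhibition values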
Conditions: at 0.1 µM
Readout: inhibition (%)

>>> df
                                test_smiles     readout  value
0  NS(=O)(=O)c1ccc(N/N=C2\C(=O)Nc3ccc(-c4cnco4)cc32)cc1  inhibition  -0.59
1     COc1cc(Nc2ncc(-c3ccccc3)o2)cc(OC)c1OC  inhibition  -1.14
2       Fc1ccc(-c2c(-c3ccncc3)nc3n2CCS3)cc1  inhibition    0.4
3  COc1cccc(-n2cnc3c(N/N=C/c4ccncc4)ncnc32)c1  inhibition  -0.39
4  COC(=O)Nc1nc2ccc(Sc3ccc(NC(=O)Nc4cc(C(F)(F)F)ccc4F)cc3)cc2[nH]1  inhibition   0.97
5  CS(=O)(=O)CCNCc1ccc(-c2ccc3ncnc(Nc4ccc(OCc5ccccc5)c(Br)c4)c3c2)o1  inhibition    1.3
6  Cc1ccc(C(=O)NC2CCC2)cc1-c1ccc(C(=O)NCC2CC2)cc1  inhibition   1.17
7  C[C@@H](Oc1cc(-n2cnc3ccc(OCC4CCN(C)CC4)cc32)sc1C(N)=O)c1ccccc1Cl  inhibition   2.09
8  c1ccc(Oc2ccc(Nc3ncc(-c4ccccc4)o3)cc2)cc1  inhibition   0.81
9  COc1cccc(/C=N/Nc2ncnc3c2cnn3-c2cccc(OC)c2)c1  inhibition   2.15

---

Target: Tyrosine-protein kinase Lyn (Homo sapiens) (UniProt P07948);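 also: mean inhibition of the LYN A splice variant of the kinase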
Sequence (P07948 2-512 limits assumed): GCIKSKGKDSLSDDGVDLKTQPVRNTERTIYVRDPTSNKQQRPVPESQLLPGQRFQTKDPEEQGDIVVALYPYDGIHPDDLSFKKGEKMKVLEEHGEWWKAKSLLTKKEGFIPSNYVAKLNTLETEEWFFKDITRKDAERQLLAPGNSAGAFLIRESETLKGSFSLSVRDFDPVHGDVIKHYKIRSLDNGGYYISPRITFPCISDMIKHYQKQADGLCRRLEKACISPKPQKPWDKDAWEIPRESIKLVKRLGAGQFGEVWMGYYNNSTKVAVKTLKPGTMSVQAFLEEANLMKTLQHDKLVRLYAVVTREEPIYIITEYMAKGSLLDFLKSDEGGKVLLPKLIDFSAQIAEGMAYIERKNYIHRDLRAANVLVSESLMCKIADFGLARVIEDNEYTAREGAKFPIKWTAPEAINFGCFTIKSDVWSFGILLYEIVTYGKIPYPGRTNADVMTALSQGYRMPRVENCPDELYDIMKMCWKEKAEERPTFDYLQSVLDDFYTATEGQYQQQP
Settings: at 0.1 µM
Description: GSK_PKIS: LYN A (splice variant) mean inhibition at 0.1 uM [Nanosyn]
Listing of entries alongside the reported inhibition.
Readout: inhibition (%)

>>> df
                                test_smiles     readout  display_unit  value
0  O=C(Nc1ccc(Oc2ccc3[nH]c(NC(=O)c4ccccc4)nc3c2)cc1)Nc1cc(C(F)(F)F)ccc1F  inhibition             %   5.73
1  COc1cc2ncn(-c3cc(OCc4ccccc4C(F)(F)F)c(C(C)=O)s3)c2cc1OC  inhibition             %   3.36
2  COc1ccc2ncn(-c3cc(O[C@H](C)c4ccccc4Cl)c(C(N)=O)s3)c2c1  inhibition             %   3.82
3     NC(=O)c1cc(-c2ccncc2)cc(-c2ccccc2)c1N  inhibition             %   11.7
4  NC(=O)Cc1ccccc1Oc1nccc(-c2c(-c3ccc(F)cc3)ncn2C2CCNCC2)n1  inhibition             %   2.61

The reported numbers originate from ChEMBL document CHEMBL1961873.
